From: paper PMC7756582

- PROTOCOL: Chemical hydrolysis in aqueous phosphate buffer (PBS, pH 7.3)
- Assay type: physicochemical
- PROTOCOL_CONDITIONS: phosphate buffered saline (PBS); aqueous 25 mM phosphate buffer, pH 7.3, 37 °C; removal of AB group; n.h. = no hydrolysis observed through cleavage of AB-mask; read-out: PBS pH 7.3 t 1/2 (converted)
OBSERVATION_TYPE: half-life at 0.92 mM (h)

>>> readout_value("CCCCCCCCC(=O)Oc1ccc(COP(=O)(OCc2ccc(OC(=O)CCCCCCCC)cc2)OP(=O)(O)OP(=O)(O)OCC2C=CC(n3cc(C)c(=O)[nH]c3=O)O2)cc1 (stereo not drawn) [5 a, reference compound]")
52
>>> readout_value("CCCCCCCCCCCCCCCCCCOP(=O)(OCc1ccc(OC(C)=O)cc1)OP(=O)(O)OP(=O)(O)OCC1C=CC(n2cc(C)c(=O)[nH]c2=O)O1 (stereo not drawn)")
196
>>> readout_value("CCCCCCCCCCCCCCCOP(=O)(OCc1ccc(OC(=O)CCCCCC)cc1)OP(=O)(O)OP(=O)(O)OCC1C=CC(n2cc(C)c(=O)[nH]c2=O)O1 (stereo not drawn)")
212

---

Below, each of the compounds is paired with its reported pEC50 value.
- Tested on: HIV-2(ROD)
- PROTOCOL: Anti-HIV activity assay, HIV-2-infected wild-type CEM/0 cell cultures
- Format: cell-based
- PROTOCOL_CONDITIONS: Human immunodeficiency virus 2, CCRF-CEM, read-out: EC50 CEM/0 HIV-2
pEC50: −log10 of the molar value.
OBSERVATION_TYPE: pEC50

>>> readout_value("CCCCCCCCCCCCCCCCCCOP(=O)(O)OP(=O)(O)OP(=O)(O)OCC1C=CC(n2cc(C)c(=O)[nH]c2=O)O1 (stereo not drawn) [7 z, γ‐C18‐d4TTP]")
6.96
>>> readout_value("CCCCCCCCCCCOP(=O)(O)OP(=O)(O)OP(=O)(O)OCC1C=CC(n2cc(C)c(=O)[nH]c2=O)O1 (stereo not drawn) [7 x, γ‐C11‐d4TTP]")
6.59
>>> readout_value("Cc1cn(C2C=CC(COP(=O)(O)OP(=O)(O)OP(=O)(O)O)O2)c(=O)[nH]c1=O (stereo not drawn) [2 t, d4TTP, reference compound]")
6.40
